This collection of values is drawn from patent US20190256559A1.

Assay: 4-week monkey GLP toxicity study, twice-weekly IV dosing (toxicity and toxicokinetics)
Assay type: in vivo, monkeys
Conditions: in vivo, intravenous; 4-week monkey GLP toxicity study, range over doses; read-out: AUC0-∞
Text: The 4-week multiple-dose GLP studies in rats and monkeys utilized twice-weekly IV dosing of peptide 1. The studies provided dose- and exposure-related assessments during both dosing and recovery periods, and results were utilized to define the maximum tolerated doses (MTD) and estimate the severely toxic dose for 10% (STD10) of rats and the highest non-severely toxic dose (HNSTD) in monkeys. […]
Where a SMILES comes first, the peptide text is derived from it. Bridges are numbered along the chain shown (N, C = ends). [ ]: non-standard residue; d: D form. R8 = C=CCCCCCC[C@@](C)(N)C(=O)O; S5 = C=CCCC[C@](C)(N)C(=O)O
measured endpoint: AUC(0-inf)

compound | measured value
CC(=O)N[C@@H](CC(C)C)C(=O)N[C@H](C(=O)N[C@@H](Cc1ccccc1)C(=O)N[C@]1(C)CCCCCC/C=C/CCC[C@@](C)(C(=O)N[C@@H](C)C(=O)N[C@@H](C)C(=O)N[C@@H](C)C(=O)N[C@@H](C)C(=O)N[C@@H](C)C(=O)N[C@H](C)C(N)=O)NC(=O)[C@H](CC(C)C)NC(=O)[C@H](CCC(N)=O)NC(=O)[C@H](C)NC(=O)[C@H](Cc2c[nH]c3ccccc23)NC(=O)[C@H](Cc2ccc(O)cc2)NC(=O)[C@H](CCC(=O)O)NC1=O)[C@@H](C)O [peptide 1] (Ac-LTF[R8]EYWAQL[S5]AAAAA[dA]-NH2; staple (E) 4-11) | 813 to 1600 µg·h/mL

====

Assay: 4-week monkey GLP toxicity study, twice-weekly IV dosing (toxicity and toxicokinetics)
Assay type: in vivo, monkeys
Details: in vivo, intravenous; 4-week monkey GLP toxicity study, range over doses
Description: The 4-week multiple-dose GLP studies in rats and monkeys utilized twice-weekly IV dosing of peptide 1. The studies provided dose- and exposure-related assessments during both dosing and recovery periods, and results were utilized to define the maximum tolerated doses (MTD) and estimate the severely toxic dose for 10% (STD10) of rats and the highest non-severely toxic dose (HNSTD) in monkeys. […]
Where a SMILES comes first, the peptide text is derived from it. Bridges are numbered along the chain shown (N, C = ends). [ ]: non-standard residue; d: D form. R8 = C=CCCCCCC[C@@](C)(N)C(=O)O; S5 = C=CCCC[C@](C)(N)C(=O)O

molecule | Cmax
CC(=O)N[C@@H](CC(C)C)C(=O)N[C@H](C(=O)N[C@@H](Cc1ccccc1)C(=O)N[C@]1(C)CCCCCC/C=C/CCC[C@@](C)(C(=O)N[C@@H](C)C(=O)N[C@@H](C)C(=O)N[C@@H](C)C(=O)N[C@@H](C)C(=O)N[C@@H](C)C(=O)N[C@H](C)C(N)=O)NC(=O)[C@H](CC(C)C)NC(=O)[C@H](CCC(N)=O)NC(=O)[C@H](C)NC(=O)[C@H](Cc2c[nH]c3ccccc23)NC(=O)[C@H](Cc2ccc(O)cc2)NC(=O)[C@H](CCC(=O)O)NC1=O)[C@@H](C)O [peptide 1] (Ac-LTF[R8]EYWAQL[S5]AAAAA[dA]-NH2; staple (E) 4-11) | 133 to 562 µg/mL

====

Assay: 4-week monkey GLP toxicity study, twice-weekly IV dosing (toxicity and toxicokinetics)
Type: in vivo, monkeys
Conditions: in vivo, intravenous; 4-week monkey GLP toxicity study, range over doses
Where a SMILES comes first, the peptide text is derived from it. Bridges are numbered along the chain shown (N, C = ends). [ ]: non-standard residue; d: D form. R8 = C=CCCCCCC[C@@](C)(N)C(=O)O; S5 = C=CCCC[C@](C)(N)C(=O)O

compound | clearance
CC(=O)N[C@@H](CC(C)C)C(=O)N[C@H](C(=O)N[C@@H](Cc1ccccc1)C(=O)N[C@]1(C)CCCCCC/C=C/CCC[C@@](C)(C(=O)N[C@@H](C)C(=O)N[C@@H](C)C(=O)N[C@@H](C)C(=O)N[C@@H](C)C(=O)N[C@@H](C)C(=O)N[C@H](C)C(N)=O)NC(=O)[C@H](CC(C)C)NC(=O)[C@H](CCC(N)=O)NC(=O)[C@H](C)NC(=O)[C@H](Cc2c[nH]c3ccccc23)NC(=O)[C@H](Cc2ccc(O)cc2)NC(=O)[C@H](CCC(=O)O)NC1=O)[C@@H](C)O [peptide 1] (Ac-LTF[R8]EYWAQL[S5]AAAAA[dA]-NH2; staple (E) 4-11) | 0.108 to 0.23 mL/min/kg

====

Tested on: plasma protein
Test: In vitro plasma protein binding
Format: in vitro ADME, mouse, rat, dog, monkey, human
Conditions: mouse and rat plasma up 250 µM
Where a SMILES comes first, the peptide text is derived from it. Bridges are numbered along the chain shown (N, C = ends). [ ]: non-standard residue; d: D form. R8 = C=CCCCCCC[C@@](C)(N)C(=O)O; S5 = C=CCCC[C@](C)(N)C(=O)O

molecule | fraction unbound
CC(=O)N[C@@H](CC(C)C)C(=O)N[C@H](C(=O)N[C@@H](Cc1ccccc1)C(=O)N[C@]1(C)CCCCCC/C=C/CCC[C@@](C)(C(=O)N[C@@H](C)C(=O)N[C@@H](C)C(=O)N[C@@H](C)C(=O)N[C@@H](C)C(=O)N[C@@H](C)C(=O)N[C@H](C)C(N)=O)NC(=O)[C@H](CC(C)C)NC(=O)[C@H](CCC(N)=O)NC(=O)[C@H](C)NC(=O)[C@H](Cc2c[nH]c3ccccc23)NC(=O)[C@H](Cc2ccc(O)cc2)NC(=O)[C@H](CCC(=O)O)NC1=O)[C@@H](C)O [peptide 1] (Ac-LTF[R8]EYWAQL[S5]AAAAA[dA]-NH2; staple (E) 4-11) | < 0.02

====

Experiment: 4-week rat GLP toxicity study, twice-weekly IV dosing (toxicity and toxicokinetics)
Type: in vivo, rats
Conditions: in vivo, intravenous; 4-week rat GLP toxicity study, range over doses
Where a SMILES comes first, the peptide text is derived from it. Bridges are numbered along the chain shown (N, C = ends). [ ]: non-standard residue; d: D form. R8 = C=CCCCCCC[C@@](C)(N)C(=O)O; S5 = C=CCCC[C@](C)(N)C(=O)O
measured endpoint: clearance

compound | measured value
CC(=O)N[C@@H](CC(C)C)C(=O)N[C@H](C(=O)N[C@@H](Cc1ccccc1)C(=O)N[C@]1(C)CCCCCC/C=C/CCC[C@@](C)(C(=O)N[C@@H](C)C(=O)N[C@@H](C)C(=O)N[C@@H](C)C(=O)N[C@@H](C)C(=O)N[C@@H](C)C(=O)N[C@H](C)C(N)=O)NC(=O)[C@H](CC(C)C)NC(=O)[C@H](CCC(N)=O)NC(=O)[C@H](C)NC(=O)[C@H](Cc2c[nH]c3ccccc23)NC(=O)[C@H](Cc2ccc(O)cc2)NC(=O)[C@H](CCC(=O)O)NC1=O)[C@@H](C)O [peptide 1] (Ac-LTF[R8]EYWAQL[S5]AAAAA[dA]-NH2; staple (E) 4-11) | 0.32 to 0.472 mL/min/kg

====

Experiment: 4-week rat GLP toxicity study, twice-weekly IV dosing (toxicity and toxicokinetics)
Assay type: in vivo, rats
Settings: in vivo, intravenous; rat, 10 mg/kg; read-out: AUC0-∞ at rat STD10
Where a SMILES comes first, the peptide text is derived from it. Bridges are numbered along the chain shown (N, C = ends). [ ]: non-standard residue; d: D form. R8 = C=CCCCCCC[C@@](C)(N)C(=O)O; S5 = C=CCCC[C@](C)(N)C(=O)O

molecule | AUC(0-inf) (µg·h/mL)
CC(=O)N[C@@H](CC(C)C)C(=O)N[C@H](C(=O)N[C@@H](Cc1ccccc1)C(=O)N[C@]1(C)CCCCCC/C=C/CCC[C@@](C)(C(=O)N[C@@H](C)C(=O)N[C@@H](C)C(=O)N[C@@H](C)C(=O)N[C@@H](C)C(=O)N[C@@H](C)C(=O)N[C@H](C)C(N)=O)NC(=O)[C@H](CC(C)C)NC(=O)[C@H](CCC(N)=O)NC(=O)[C@H](C)NC(=O)[C@H](Cc2c[nH]c3ccccc23)NC(=O)[C@H](Cc2ccc(O)cc2)NC(=O)[C@H](CCC(=O)O)NC1=O)[C@@H](C)O [peptide 1] (Ac-LTF[R8]EYWAQL[S5]AAAAA[dA]-NH2; staple (E) 4-11) | 562

====

Test: 4-week rat GLP toxicity study, twice-weekly IV dosing (toxicity and toxicokinetics)
Type: in vivo, rats
Conditions: in vivo, intravenous; 4-week rat GLP toxicity study, range over doses
Where a SMILES comes first, the peptide text is derived from it. Bridges are numbered along the chain shown (N, C = ends). [ ]: non-standard residue; d: D form. R8 = C=CCCCCCC[C@@](C)(N)C(=O)O; S5 = C=CCCC[C@](C)(N)C(=O)O
measured endpoint: Cmax

molecule | measured value
CC(=O)N[C@@H](CC(C)C)C(=O)N[C@H](C(=O)N[C@@H](Cc1ccccc1)C(=O)N[C@]1(C)CCCCCC/C=C/CCC[C@@](C)(C(=O)N[C@@H](C)C(=O)N[C@@H](C)C(=O)N[C@@H](C)C(=O)N[C@@H](C)C(=O)N[C@@H](C)C(=O)N[C@H](C)C(N)=O)NC(=O)[C@H](CC(C)C)NC(=O)[C@H](CCC(N)=O)NC(=O)[C@H](C)NC(=O)[C@H](Cc2c[nH]c3ccccc23)NC(=O)[C@H](Cc2ccc(O)cc2)NC(=O)[C@H](CCC(=O)O)NC1=O)[C@@H](C)O [peptide 1] (Ac-LTF[R8]EYWAQL[S5]AAAAA[dA]-NH2; staple (E) 4-11) | 49.9 to 186 µg/mL
